Target or system: T1, Human TNFR2 (human, UniProt P20333 23-461)
T1 construct: On cells: HeLa-TNFR2, HT1080-Bcl2-TNFR2, transiently transfected HEK293; endogenous on Kym-1 cells; also called huTNFR2; TNFRSF1B
T1 sequence: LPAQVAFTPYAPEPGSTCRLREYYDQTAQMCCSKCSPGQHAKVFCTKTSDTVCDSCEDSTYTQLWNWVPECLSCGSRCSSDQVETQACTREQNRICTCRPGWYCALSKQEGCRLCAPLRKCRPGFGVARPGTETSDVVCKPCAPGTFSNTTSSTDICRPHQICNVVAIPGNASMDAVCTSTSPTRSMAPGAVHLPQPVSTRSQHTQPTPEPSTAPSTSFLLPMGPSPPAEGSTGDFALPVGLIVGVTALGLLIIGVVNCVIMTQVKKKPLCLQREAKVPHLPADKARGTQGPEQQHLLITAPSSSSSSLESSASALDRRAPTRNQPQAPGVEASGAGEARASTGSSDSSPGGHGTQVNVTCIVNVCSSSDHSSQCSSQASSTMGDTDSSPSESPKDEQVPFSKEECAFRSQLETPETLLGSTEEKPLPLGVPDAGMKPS
Protocol notes: equilibrium binding of VHH-Fc-GpL to cells expressing human TNFR2, 37 °C; HEK293 cells as unspecific binding; one-site fit of specific binding
Here, each record is paired with measured Kd data.
Observable: Kd (µg/mL)

>  <Binder>
VHH:C118-Fc-GpL (Fc fusion, also called VHH-Fc-GpL format protein of C118; not shown: The Fc domain, the C-terminal GpL reporter and the linkers or tags of the VHH-Fc-GpL construct; No entry gives the joined chain or says which Fc variant was used) VHH: QVQLVESGGGSVQAGGSLRLSCAASGHTYRSNCMGWFRQAPGKEREGVAAMYTGTDWKYYADSVKGRFTISQDKAKNTLYLVMNNLKPDDTGVYYCAADFGFICGYDSDDDPYDAWGQGTQVTVSS

>  <Endpoint value>
0.13

$$$$
>  <Binder>
VHH:C12-Fc-GpL (Fc fusion, also called VHH-Fc-GpL format protein of C12; not shown: The Fc domain, the C-terminal GpL reporter and the linkers or tags of the VHH-Fc-GpL construct; No entry gives the joined chain or says which Fc variant was used) VHH: DVQLVESGGGLVQPGGSLRLSCGGSGFTFSSYGMSWVRQAPGKGLEWVSGIYDDGSVTDYADSVKGRFTISRDDAKNTVYLQMNSLKSEDTALYYCATGEDGELNYWGQGTQVTVSS

>  <Endpoint value>
0.8

$$$$
>  <Binder>
VHH:C178-Fc-GpL (Fc fusion, also called VHH-Fc-GpL format protein of C178; not shown: The Fc domain, the C-terminal GpL reporter and the linkers or tags of the VHH-Fc-GpL construct; No entry gives the joined chain or says which Fc variant was used) VHH: DVQLVESGGGLVHPGGSLRLSCAASGFTFSADDATWARQPPGKGLEWISTLYFDTEEKTYADSVKGRFIISRDIAKNTVYLQMNNLKPEDTGMYVCTATWAGGSLLRPASFGVWGQGTQVTVSS

>  <Endpoint value>
0.9

$$$$
>  <Binder>
VHH:C36-Fc-GpL (Fc fusion, also called VHH-Fc-GpL format protein of C36; not shown: The Fc domain, the C-terminal GpL reporter and the linkers or tags of the VHH-Fc-GpL construct; No entry gives the joined chain or says which Fc variant was used) VHH: HVQLVESGGGSVQAGGSLRLSCAASGFTFSSYYMSWVRQAPGKGLEWVSAIYSDDSDNYSDSVKGRFTISKDNAKNTLYLQMNSLKPEDTAMYYCAAIRIGTDQYKFWGQGTQVTVSS

>  <Endpoint value>
3.2

$$$$
